assay: Waters ACQUITY UPLC BEH Shield RP18, 100 × 2.1 mm, 1.7 µm, 40 °C, 0.4 mL/min, estimated dead time 0.55 min; A: water + 0.1% formic acid; B: acetonitrile; gradient (min/%B) 0/2 10/18 15/28 22/40 32/67; details: stereoisomer not certain
LC retention time below 20 min gives rule not met; LC retention time at or above it gives rule met.

molecule=COc1ccc(-c2coc3cc(O)ccc3c2=O)cc1O label="rule not met"
molecule="O=C(C=Cc1ccc(OC2OC(CO)C(O)C(O)C2OC2OCC(O)(CO)C2O)cc1)c1ccc(O)cc1O (stereo unspecified)" label="rule not met"
molecule="CC1(C(=O)O)CCC2(C)CCC3(C)C(=CC(=O)C4C5(C)CCC(O)C(C)(C)C5CCC43C)C2C1 (stereo unspecified)" label="rule met"
molecule="CC1(C(=O)OC2OC(CO)C(O)C(O)C2O)CCC2(C)CCC3(C)C(=CC(=O)C4C5(C)CCC(OC6OC(C(=O)O)C(O)C(O)C6OC6OC(C(=O)O)C(O)C(O)C6O)C(C)(C)C5CCC43C)C2C1 (stereo unspecified)" label="rule not met"
molecule="O=C1CC(c2ccc(OC3OC(CO)C(O)C(O)C3OC3OCC(O)(CO)C3O)cc2)Oc2cc(O)ccc21 (stereo unspecified)" label="rule not met"
molecule="O=C1CC(c2ccc(OC3OC(CO)C(O)C(O)C3O)cc2)Oc2cc(OC3OC(CO)C(O)C(O)C3O)ccc21 (stereo unspecified)" label="rule not met"
molecule="O=C1CC(c2ccc(OC3OC(CO)C(O)C(O)C3O)cc2)Oc2cc(O)ccc21 (stereo unspecified)" label="rule not met"
molecule=CC(C)=CCc1cc(-c2cc(=O)c3c(O)cc(O)cc3o2)cc(O)c1O label="rule met"
molecule="O=C(O)CC(C(=O)O)c1ccc(O)cc1 (stereo unspecified)" label="rule not met"
molecule=C=CC(C)(C)c1cc(C=CC(=O)c2ccc(O)cc2)c(OC)cc1O label="rule met"
molecule="COc1ccc(-c2coc3cc(OC4OC(CO)C(O)C(O)C4OC4OCC(O)(CO)C4O)ccc3c2=O)cc1 (stereo unspecified)" label="rule not met"
molecule=COc1ccc(-c2coc3cc(O)ccc3c2=O)cc1 label="rule not met"
molecule="CC(=O)OC1CC(C)(C(=O)O)CC2C3=CC(=O)C4C5(C)CCC(OC6OC(C(=O)O)C(O)C(O)C6OC6OC(C(=O)O)C(O)C(O)C6O)C(C)(CO)C5CCC4(C)C3(C)CCC12C (stereo unspecified)" label="rule not met"
molecule=CC1(C)C=Cc2c(ccc(-c3coc4cc(O)cc(O)c4c3=O)c2O)O1 label="rule met"
molecule=COc1cc(O)c(-c2coc3cc(O)ccc3c2=O)c(OC)c1CC=C(C)C label="rule met"
molecule="O=C(C=Cc1ccc(O)cc1)c1ccc(OC2OC(CO)C(O)C(O)C2O)cc1O (stereo unspecified)" label="rule not met"
